- tested_target: MR (Homo sapiens)
- Construct: expressed in transfected cells; host or cells: Huh7 human liver cells (ATCC), transient transfection with FuGENE 6
- assay_remarks: Cell-based reporter assay (Gal4-MR-LBD luciferase, antagonist mode)
pIC50: −log10 of the molar value.
Would you mind labelling by pIC50? At or over 6 is Condition met, under is Condition not met.

Qu. Check the entry C[C@@H]1CN(c2ccc3oc(=O)[nH]c3c2)[C@H](c2ccccc2)CO1 [Example 45] : does pIC50 equal or exceed 6?
Ans. Condition met

Qu. Queued: C[C@H]1CN(c2ncc3c(n2)NC(=O)CO3)[C@@H](c2cccc(F)c2)CO1 (racemic) [Example 51]
Ans. Condition met

Qu. Queued: CC1(c2ccccc2)CN(c2ccc3c(c2)NC(=O)CO3)CCO1 (centres unmarked) [Example 38]
Ans. Condition not met

Qu. Queued: C[C@@H]1CN(c2ccc3c(n2)NC(=O)CO3)[C@H](c2ccccc2F)CO1 (single isomer, unassigned) [Example 8]
Ans. Condition met

Qu. Queued: C[C@@H]1CN(c2ccc3c(n2)NC(=O)CO3)[C@@H]2c3ccccc3C[C@@H]2O1 (single isomer, unassigned) [Example 23]
Ans. Condition met

* * *

The following molecules are listed with their measured IC50 values.
- tested_target: MR (Homo sapiens, UniProt P08235)
- Construct: expressed in transfected cells; host or cells: Huh7 human liver cells (ATCC), transient transfection with FuGENE 6
- Sequence (P08235 726-964 limits assumed): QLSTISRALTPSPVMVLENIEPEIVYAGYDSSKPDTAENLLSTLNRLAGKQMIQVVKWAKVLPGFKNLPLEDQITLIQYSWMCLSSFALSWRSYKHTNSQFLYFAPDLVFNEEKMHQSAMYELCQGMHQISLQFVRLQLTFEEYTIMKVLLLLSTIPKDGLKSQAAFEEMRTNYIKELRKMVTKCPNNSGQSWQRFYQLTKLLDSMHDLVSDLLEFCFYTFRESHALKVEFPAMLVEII
- assay_remarks: Cell-based reporter assay (Gal4-MR-LBD luciferase, antagonist mode)
Could you give me the number in nM? Just the number is fine.

# count of solved cases: 3
O=C1COc2ccc(N3CCO[C@H]4Cc5ccccc5[C@H]43)nc2N1
3000
C[C@@H]1CN(c2cc3c(cn2)OCC(=O)N3)[C@H](c2ccccc2)CO1
252
O=C1COc2ccc(N3CCOC[C@H]3c3ccccc3)nc2N1
1970

Okay, now this molecule:
Qu. Item: CC1CN(c2ccc3c(n2)NC(=O)CO3)CCO1 (racemic) Test system: MR (Homo sapiens, UniProt P08235) Read-out: IC50 Value: ?
Ans. 3050
